Each recorded value in this set is attributed to BindingDB's records for doi:10.1074/jbc.M803947200.

assay system: Stromal cell-derived factor 1 (Homo sapiens)
Sequence (P48061 whole entry): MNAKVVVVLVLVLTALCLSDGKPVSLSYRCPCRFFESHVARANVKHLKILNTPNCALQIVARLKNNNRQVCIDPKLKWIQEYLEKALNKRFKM
Overview of recorded IC50 for various compounds

Guide cases for IC50, answers given:
COc1cc(/C=C/C(=O)c2ccc(Cl)cc2)ccc1O :: 150 µM
O=C(/C=C/c1ccc(O)cc1)c1ccccc1 :: 15 µM
O=C(/C=C/c1ccccc1)c1ccccc1 :: > 500 µM

Q. Recall the recorded IC50 for O=C(/C=C/c1ccc(O)cc1)c1ccccc1O with Stromal cell-derived factor 1 (Homo sapiens) and state it.
A. 24.2 µM
